Each record here notes measured melting point.
Property Label: melting point

INSERT INTO measurements (molecule, property_label, obs_value) VALUES
  ('CN(CCN1CCCCC1)c1ccc(-c2nc3cc(Cl)c(F)cc3[nH]2)cc1 [Example 5]', 'melting point', '167 to 168 °C'),
  ('CN(CCN1CCCCC1)c1ccc(-c2nc3ccc(Cl)cc3[nH]2)cc1 [Example 4]', 'melting point', '196 °C'),
  ('CN(CCN1CCCCC1)c1ccc(-c2nc3cc(Cl)c(Cl)cc3[nH]2)cc1 [Example 2]', 'melting point', '165 to 167 °C'),
  ('Cc1cc2nc(-c3ccc(N(C)CCN4CCCCC4)cc3)[nH]c2cc1C [Example 7]', 'melting point', '194 to 196 °C');
